Values compiled from patent US8350027B2.

# SYSTEM: NEP enzyme (Homo sapiens, UniProt P08473)
# Construct: purchased R&D Systems, Minneapolis, Minn; 1182-ZN
# Sequence (P08473 52-750 limits assumed): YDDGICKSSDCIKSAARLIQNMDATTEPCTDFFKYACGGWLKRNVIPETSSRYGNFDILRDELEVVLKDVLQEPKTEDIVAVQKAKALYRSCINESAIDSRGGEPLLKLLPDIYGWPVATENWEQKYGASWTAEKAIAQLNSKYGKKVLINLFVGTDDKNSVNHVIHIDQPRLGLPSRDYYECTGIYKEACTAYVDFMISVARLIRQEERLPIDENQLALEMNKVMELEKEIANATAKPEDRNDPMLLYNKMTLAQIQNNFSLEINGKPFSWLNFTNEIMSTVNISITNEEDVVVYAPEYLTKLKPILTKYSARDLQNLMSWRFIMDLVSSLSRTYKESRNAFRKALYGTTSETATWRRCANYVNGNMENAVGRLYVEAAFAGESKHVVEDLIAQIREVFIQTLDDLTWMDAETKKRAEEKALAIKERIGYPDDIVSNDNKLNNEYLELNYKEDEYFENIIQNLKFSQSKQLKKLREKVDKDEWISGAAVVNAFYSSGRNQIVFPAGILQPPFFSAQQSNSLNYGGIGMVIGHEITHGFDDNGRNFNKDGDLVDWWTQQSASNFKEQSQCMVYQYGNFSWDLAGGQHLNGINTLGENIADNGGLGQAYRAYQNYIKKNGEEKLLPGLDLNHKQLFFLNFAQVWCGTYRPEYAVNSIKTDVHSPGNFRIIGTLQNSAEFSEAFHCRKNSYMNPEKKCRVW
# PROTOCOL: NEP enzyme inhibition assay (fluorogenic peptide substrate)
# Assay type: biochemical
# MEASUREMENT_SETUP: values given as lower bounds; * = prodrugs, may not exhibit NEP activity in an in vitro assay; read-out: NEP pIC50 (converted)
MEASURED_PARAMETER: IC50

// below: answered compounds
[in] Any idea what its IC50 is? The compound is CCCc1cc(C(=O)N[C@@H](CC(=O)O)Cc2ccccc2Br)nn1Cc1ccc(-c2ccccc2S(=O)(=O)NC(C)=O)cc1 [Example 6-8]
[out] ≤ 1000 nM

[in] What do we get for CCCc1cc(C(=O)N[C@H](Cc2ccccc2)[C@@H](O)C(=O)O)nn1Cc1ccc(-c2ccccc2S(=O)(=O)NC(=O)NC)cc1 [Example 7-11] ?
[out] ≤ 100 nM

***
[in] Entry under review: CCCc1cc(C(=O)N[C@H](Cc2ccccc2)[C@@H](O)C(=O)O)nn1Cc1ccc(-c2ccccc2S(=O)(=O)NC(=O)c2ccccc2)cc1 [Example 7-12] . Reported IC50?
[out] ≤ 1000 nM

[in] Also check CCCc1cc(C(=O)N[C@H](Cc2ccccc2Cl)[C@@H](O)C(=O)O)nn1Cc1ccc(-c2ccccc2-n2nn[nH]c2=O)cc1 [Example 16-6]
[out] ≤ 100 nM

[in] // query: CCCc1cc(C(=O)N[C@@H](CC(=O)O)Cc2ccccc2F)nn1Cc1ccc(-c2ccccc2-c2nnn[nH]2)cc1 [Example 3-33]
[out] ≤ 10000 nM

[in] Queued: CCCc1cc(C(=O)N[C@@H](CC(=O)O)Cc2ccccc2Cl)nn1Cc1ccc(-c2ccccc2-c2nnn[nH]2)cn1 [Example 15-2]
[out] ≤ 1000 nM

###

Catalogue of Ki values
# SYSTEM: human AT1 receptor (Homo sapiens)
# Construct: expressed in transfected cells; host or cells: CHO-K1
# Sequence (P30556 whole entry): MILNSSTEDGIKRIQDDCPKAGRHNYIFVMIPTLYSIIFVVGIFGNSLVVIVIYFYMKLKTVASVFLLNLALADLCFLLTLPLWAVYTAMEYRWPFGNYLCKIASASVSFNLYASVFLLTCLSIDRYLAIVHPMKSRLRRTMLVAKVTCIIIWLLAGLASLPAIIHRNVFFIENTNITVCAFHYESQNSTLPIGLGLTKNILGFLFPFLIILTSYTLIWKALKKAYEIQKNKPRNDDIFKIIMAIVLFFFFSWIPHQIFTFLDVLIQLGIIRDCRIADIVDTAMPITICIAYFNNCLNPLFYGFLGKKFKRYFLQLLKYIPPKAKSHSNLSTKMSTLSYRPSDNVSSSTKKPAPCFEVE
# PROTOCOL: AT1 radioligand binding assay (displacement of [Eu]AngII)
# MEASUREMENT_SETUP: membranes of CHO-K1 cells expressing cloned human AT1 receptor; values given as lower bounds; read-out: AT1 pKi (converted)

Previously resolved entries follow.
[in] Quick one: Ki of CCCc1cc(C(=O)N[C@H](Cc2ccccc2)[C@@H](O)C(=O)O)nn1Cc1ccc(-c2ccccc2S(=O)(=O)NC(=O)CCOC)cc1 ?
[out] ≤ 10 nM

[in] // query: CCCc1cc(C(=O)N[C@@H](CC(=O)O)Cc2ccccc2)nn1Cc1ccc(-c2ccccc2S(=O)(=O)NC(C)=O)nc1
[out] ≤ 10 nM

Next:
[in] May I ask what Ki has been recorded for CCCc1cc(C(=O)N[C@H](Cc2ccccc2Cl)[C@@H](O)C(=O)O)nn1Cc1ccc(-c2ccccc2-n2nn[nH]c2=O)cc1 ?
[out] ≤ 100 nM

###

# SYSTEM: NEP enzyme (Homo sapiens)
# Construct: purchased R&D Systems, Minneapolis, Minn; 1182-ZN
# PROTOCOL: NEP enzyme inhibition assay (fluorogenic peptide substrate)
# Assay type: biochemical
# MEASUREMENT_SETUP: values given as lower bounds; * = prodrugs, may not exhibit NEP activity in an in vitro assay; read-out: NEP pIC50 (converted)
MEASURED_PARAMETER: IC50

[in] Param item = CCCc1cc(C(=O)N[C@H](Cc2ccccc2)[C@H](O)C(=O)O)nn1Cc1ccc(-c2ccccc2-c2nnn[nH]2)nc1 [Example 14-9] ; retrieve measured IC50.
[out] ≤ 100 nM

[in] Also need CCCc1cc(C(=O)N[C@@H](CC(=O)O)Cc2ccsc2)nn1Cc1ccc(-c2ccccc2-c2nnn[nH]2)nc1 [Example 14-10] , thanks.
[out] ≤ 100 nM

[in] Would you kindly repeat that for CCCc1cc(C(=O)N[C@H](CC(C)C)CN(O)C=O)nn1Cc1ccc(-c2ccccc2S(=O)(=O)NC(C)=O)cc1 [Example 6-15] ?
[out] ≤ 100 nM

[in] Continue with CCCc1cc(C(=O)N[C@H](Cc2ccccc2)[C@@H](O)C(=O)O)nn1Cc1ccc(-c2ccccc2S(=O)(=O)NC(=O)c2ccccn2)cc1 [Example 7-9]
[out] ≤ 1000 nM

[in] # repeat for CCCc1cc(C(=O)N[C@@H](CC(=O)O)Cc2ccccc2)nn1Cc1cnc(-c2ccccc2S(=O)(=O)NC(C)=O)cn1 [Example 17-4]
[out] ≤ 1000 nM

Continuing:
[in] Tell me the measured IC50 of CCc1cc(C(=O)N[C@H](Cc2ccccc2)[C@@H](O)C(=O)O)nn1Cc1ccc(-c2ccccc2S(=O)(=O)NC(C)=O)cc1F [Example 6-10] , please.
[out] ≤ 100 nM

[in] Subsequent entry: CCCc1cc(C(=O)N[C@H](Cc2ccccc2)[C@@H](O)C(=O)O)nn1Cc1ccc(-c2ccccc2-n2nn[nH]c2=O)cc1 [Example 16-3]
[out] ≤ 100 nM

###

# SYSTEM: NEP enzyme (Homo sapiens)
# Construct: purchased R&D Systems, Minneapolis, Minn; 1182-ZN
# PROTOCOL: NEP enzyme inhibition assay (fluorogenic peptide substrate)
# Assay type: biochemical
# MEASUREMENT_SETUP: values given as lower bounds; * = prodrugs, may not exhibit NEP activity in an in vitro assay; read-out: NEP pIC50 (converted)
MEASURED_PARAMETER: IC50

# count of solved cases: 4
[in] Suppose we examine the molecule CCOc1cc(C(=O)N[C@H](Cc2ccccc2)[C@@H](O)C(=O)O)nn1Cc1ccc(-c2ccccc2-n2nn[nH]c2=O)cc1 ; what IC50 value has been reported?
[out] ≤ 0.1 µM

[in] Then what about the molecule CCCc1cc(C(=O)N[C@H](Cc2ccccc2)[C@@H](O)C(=O)O)nn1Cc1ccc(-c2ccccc2S(=O)(=O)NC(=O)C2CC2)cc1 ?
[out] ≤ 0.1 µM

[in] Same read-out for CCCc1cc(C(=O)N[C@H](Cc2ccccc2)[C@@H](O)C(=O)O)nn1Cc1ccc(-c2ccccc2S(=O)(=O)NC(C)=O)nc1 ?
[out] ≤ 0.1 µM

[in] Next record, please: CCOc1cc(C(=O)N[C@H](Cc2ccccc2)[C@@H](O)C(=O)O)nn1Cc1ccc(-c2ccccc2-c2nnn[nH]2)cc1
[out] ≤ 1 µM

Continuing:
[in] Suppose we examine the molecule CCCc1cc(C(=O)N[C@@H](CC(=O)O)Cc2ccccc2Cl)nn1Cc1cnc(-c2ccccc2-c2nnn[nH]2)nc1 ; what IC50 value has been reported?
[out] ≤ 1 µM

[in] Record: CCCc1cc(C(=O)N[C@@H](CC(=O)O)Cc2ccccc2Cl)nn1Cc1cnc(-c2ccccc2S(=O)(=O)NC(C)=O)cn1
[out] ≤ 1 µM

###

# SYSTEM: NEP enzyme (Homo sapiens)
# Construct: purchased R&D Systems, Minneapolis, Minn; 1182-ZN
# PROTOCOL: NEP enzyme inhibition assay (fluorogenic peptide substrate)
# Format: biochemical
# MEASUREMENT_SETUP: values given as lower bounds; * = prodrugs, may not exhibit NEP activity in an in vitro assay; read-out: NEP pIC50 (converted)
MEASURED_PARAMETER: IC50

Would you please look over these solved cases?
[in] Query: IC50; subject: CCCc1cc(C(=O)N[C@H](Cc2ccccc2Cl)[C@@H](O)C(=O)O)nn1Cc1ccc(-c2ccccc2-c2nnn[nH]2)nc1
[out] ≤ 100 nM

[in] And for CCCc1cc(C(=O)N[C@H](Cc2ccccc2)[C@@H](O)C(=O)O)nn1Cc1ccc(-c2ccccc2S(=O)(=O)NC(=O)N(C)C)cc1 ?
[out] ≤ 100 nM

Now for a further molecule.
[in] Consider the molecule CCCc1cc(C(=O)N[C@H](Cc2ccccc2)[C@@H](O)C(=O)O)nn1Cc1ccc(-c2ccccc2-c2nnn[nH]2)cc1 and give its measured IC50.
[out] ≤ 1000 nM

###

# SYSTEM: human AT1 receptor (Homo sapiens)
# Construct: expressed in transfected cells; host or cells: CHO-K1
# PROTOCOL: AT1 radioligand binding assay (displacement of [Eu]AngII)
# MEASUREMENT_SETUP: membranes of CHO-K1 cells expressing cloned human AT1 receptor; values given as lower bounds; read-out: AT1 pKi (converted)
MEASURED_PARAMETER: Ki

[in] State the recorded Ki for this entry: CCCc1cc(C(=O)N[C@@H](CC(=O)O)Cc2ccccc2F)nn1Cc1ccc(-c2ccccc2-c2nnn[nH]2)nc1
[out] ≤ 10 nM

[in] Proceed to CCCc1cc(C(=O)N[C@@H](CC(=O)O)Cc2ccccc2C(F)(F)F)nn1Cc1ccc(-c2ccccc2-c2nnn[nH]2)cc1F
[out] ≤ 100 nM

[in] // query: CCCc1cc(C(=O)N[C@H](Cc2ccccc2Cl)[C@@H](O)C(=O)O)nn1Cc1ccc(-c2ccccc2-c2nnn[nH]2)nc1
[out] ≤ 10 nM

[in] And what about the molecule CCCc1cc(C(=O)N[C@H](Cc2ccccc2)[C@@H](O)C(=O)O)nn1Cc1ccc(-c2ccccc2S(=O)(=O)NC(C)=O)c(F)c1 ?
[out] ≤ 10 nM

[in] Again, but for CCCc1cc(C(=O)N[C@@H](CC(=O)O)Cc2ccccc2)nn1Cc1ccc(-c2ccccc2-c2nnn[nH]2)cc1F
[out] ≤ 10 nM

[in] Try CCCc1cc(C(=O)N[C@H](Cc2ccccc2)[C@@H](O)C(=O)O)nn1Cc1ccc(-c2ccccc2S(=O)(=O)NC(C)=O)nc1 next.
[out] ≤ 100 nM
